Consider the following molecules; for each one, report its hERG current change (%, negative = inhibition) at 10uM.
- target_desc: human ether-à-go-go-related gene (hERG) potassium channel (human)
- protocol_notes: primary screen, population patch clamp on CHO cells stably expressing hERG; higher = less effect of the substance
In all, about 310,000 compounds went through this assay and about 14,000 (4.5%) showed an effect of 50% or more. Effects have a minus sign here. The entries come from a sample that favours strong results as a whole.
Dear colleague, please return just the value in %, with no unit written.

For the molecule shown here, "COc1ccc(NC(=O)CSc2ccc3nnc(-c4cccnc4)n3n2)cc1OC" , give the reported hERG current change (%, negative = inhibition) at 10uM.
1.17

What measured hERG current change (%, negative = inhibition) at 10uM goes with CC(C)NCC(O)COc1ccc(Br)cc1.Cl (stereo not drawn) ?
-30.3

Consider the molecule shown here: "CCN(CC)S(=O)(=O)c1cc(NC(=O)Cn2cnc3ccccc3c2=O)ccc1C" What is its recorded hERG current change (%, negative = inhibition) at 10uM?
-54.8

So what does the record say about hERG current change (%, negative = inhibition) at 10uM for "O=C(COc1ccc(Cl)cc1)NC1CC1" ?
5.47

Report hERG current change (%, negative = inhibition) at 10uM for "Cc1onc(C(=O)N2CCN(Cc3ccccc3)CC2)c1[N+](=O)[O-]" please.
-10.7

Given CC1CCc2sc(C(=O)NCC(C)(C)N3CCOCC3)cc2C1 (stereo not drawn) , state its recorded hERG current change (%, negative = inhibition) at 10uM.
-32.6

Give its hERG current change (%, negative = inhibition) at 10uM value. Item: "CCOc1ccc(NC(=O)CSc2ccc(-c3cccnc3)nn2)cc1"
-5.55

Item under review: COc1ccc2oc(C(=O)OCC(=O)N3CC(C)OC(C)C3)c(C)c2c1 (stereo not drawn) . Reported hERG current change (%, negative = inhibition) at 10uM?
-0.998

Name the recorded hERG current change (%, negative = inhibition) at 10uM for "Cc1cccc2sc(NNC(=O)c3cc(-c4cccs4)nc4ccccc34)nc12" .
13.4

Which hERG current change (%, negative = inhibition) at 10uM value belongs to "COc1ccc2oc(C(=O)OCC(=O)N3CCCCC3)c(C)c2c1" ?
8.71

What value of hERG current change (%, negative = inhibition) at 10uM has been recorded for this entry: "CCOC(=O)C1CCN(C(=O)COC(=O)c2oc3ccc(OC)cc3c2C)CC1"
-55.6

Could you share which hERG current change (%, negative = inhibition) at 10uM value was measured for OCCN(CCO)CC(O)COc1ccc(Br)cc1 (stereo not drawn) ?
3.82

Requested field: hERG current change (%, negative = inhibition) at 10uM. Item: "O=C1CC2(CCN(S(=O)(=O)c3ccccc3F)CC2)Oc2ccccc21"
-84.6

Param item = "CCN(CC)S(=O)(=O)c1ccc(NC(=O)Cn2cnc3ccccc3c2=O)cc1" ; retrieve measured hERG current change (%, negative = inhibition) at 10uM.
-32.8

Record request: hERG current change (%, negative = inhibition) at 10uM value, item "COC(=O)C1CCN(C(=O)COC(=O)c2oc3ccc(OC)cc3c2C)CC1"
-17.3

May I ask what hERG current change (%, negative = inhibition) at 10uM has been recorded for "COc1ccc2oc(C(=O)OCC(=O)N3CCC(C)CC3)c(C)c2c1" ?
-0.112

# lookup: hERG current change (%, negative = inhibition) at 10uM of "CC(C)NC(=O)Cn1c(SCC(=O)c2ccc(F)cc2)nc2ccccc21"
6.27

What does the record list as hERG current change (%, negative = inhibition) at 10uM for "Cc1ccc(-c2nn3nnnc3c3ccccc23)cc1C" ?
-1.31

What does the record list as hERG current change (%, negative = inhibition) at 10uM for "CC(C)=CC(=O)OCC(=O)Nc1cc([N+](=O)[O-])ccc1F" ?
0.461

// returns reported hERG current change (%, negative = inhibition) at 10uM for input "O=C(Nc1nc(-c2cc(Cl)sc2Cl)cs1)c1ccc(Br)s1"
-6.05

// hERG current change (%, negative = inhibition) at 10uM lookup, key: "CCN1/C(=C\C(C)=O)Sc2ccc(OC)cc21"
13.9

Which value of hERG current change (%, negative = inhibition) at 10uM has been reported for O=C1OC(Nc2ccccn2)c2ccccc21 (stereo not drawn) in the records?
-5.61

Query: hERG current change (%, negative = inhibition) at 10uM; subject: "S=c1[nH]c2ccccc2o1"
18

Form field: reported hERG current change (%, negative = inhibition) at 10uM of "CC(=O)c1ccc(S(=O)(=O)N2CCC3(CC2)CC(=O)c2ccccc2O3)cc1"
-42.6

----------
Can you tell me hERG current change (%, negative = inhibition) at 10uM for the items I'm about to list?
- target_desc: human ether-à-go-go-related gene (hERG) potassium channel (human, UniProt Q12809)
- Sequence (Q12809 whole entry, looked up): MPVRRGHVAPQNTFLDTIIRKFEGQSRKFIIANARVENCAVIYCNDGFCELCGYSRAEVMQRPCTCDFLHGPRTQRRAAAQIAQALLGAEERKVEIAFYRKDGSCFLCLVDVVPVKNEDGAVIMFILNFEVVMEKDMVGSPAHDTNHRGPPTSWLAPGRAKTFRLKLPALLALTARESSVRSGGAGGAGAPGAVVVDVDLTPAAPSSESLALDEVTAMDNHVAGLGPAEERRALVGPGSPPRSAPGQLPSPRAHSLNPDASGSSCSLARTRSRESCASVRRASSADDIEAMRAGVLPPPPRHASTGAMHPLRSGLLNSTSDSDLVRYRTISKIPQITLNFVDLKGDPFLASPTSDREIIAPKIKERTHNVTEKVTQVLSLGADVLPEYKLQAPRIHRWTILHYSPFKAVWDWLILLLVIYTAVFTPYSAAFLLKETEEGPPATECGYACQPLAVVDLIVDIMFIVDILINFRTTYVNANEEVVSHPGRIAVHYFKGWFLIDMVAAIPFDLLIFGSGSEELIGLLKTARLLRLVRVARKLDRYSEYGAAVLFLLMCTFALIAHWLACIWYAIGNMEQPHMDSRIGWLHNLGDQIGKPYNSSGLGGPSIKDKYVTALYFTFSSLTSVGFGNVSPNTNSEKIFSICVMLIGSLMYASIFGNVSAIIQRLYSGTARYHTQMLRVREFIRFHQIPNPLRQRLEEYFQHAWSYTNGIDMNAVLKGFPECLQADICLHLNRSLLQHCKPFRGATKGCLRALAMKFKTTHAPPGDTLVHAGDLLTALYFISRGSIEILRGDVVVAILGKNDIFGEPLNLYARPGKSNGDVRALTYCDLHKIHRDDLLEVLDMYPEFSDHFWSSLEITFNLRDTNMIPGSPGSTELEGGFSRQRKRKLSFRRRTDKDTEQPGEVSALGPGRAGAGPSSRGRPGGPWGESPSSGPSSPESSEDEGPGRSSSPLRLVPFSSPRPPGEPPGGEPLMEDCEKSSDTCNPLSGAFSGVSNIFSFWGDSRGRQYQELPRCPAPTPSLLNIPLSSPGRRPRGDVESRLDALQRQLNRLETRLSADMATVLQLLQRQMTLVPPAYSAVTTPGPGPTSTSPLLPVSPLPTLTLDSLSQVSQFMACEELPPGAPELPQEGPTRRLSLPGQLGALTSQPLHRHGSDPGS
- protocol_notes: primary screen, population patch clamp on CHO cells stably expressing hERG; higher = less effect of the substance
Out of some 310,000 compounds screened, about 14,000 (4.5%) showed an effect of 50% or more. The effect is printed as a negative number. The list comes from a sample in which strong results are over-represented; it also holds close analogues and randomly drawn compounds.
Enter your answer as a number in %; do not include the unit.

Form entry - test system: human ether-à-go-go-related gene (hERG) potassium channel (human, UniProt Q12809); read-out: hERG current change (%, negative = inhibition) at 10uM; compound: "COCCN(Cc1cc2cc3c(cc2nc1Cl)OCO3)C(=O)Nc1ccc(F)cc1"
-30

Tell me reported hERG current change (%, negative = inhibition) at 10uM for CS(=O)(=O)Nc1cccc(C2=NN(S(C)(=O)=O)C(c3ccccc3)C2)c1 (centres unmarked) , tested with human ether-à-go-go-related gene (hERG) potassium channel (human, UniProt Q12809).
-30.9

# query: hERG current change (%, negative = inhibition) at 10uM | item "Cc1cccc(NC(=O)c2cccc(NC(=O)Cc3cccs3)c2)c1" | system: human ether-à-go-go-related gene (hERG) potassium channel (human, UniProt Q12809)
4.72

Enter reported hERG current change (%, negative = inhibition) at 10uM observed with human ether-à-go-go-related gene (hERG) potassium channel (human, UniProt Q12809) for O=C(COC(=O)C1CC(=O)N(c2nc(-c3ccccc3)cs2)C1)c1ccccc1 (centres unmarked)
26.9

Can you look up hERG current change (%, negative = inhibition) at 10uM on human ether-à-go-go-related gene (hERG) potassium channel (human, UniProt Q12809) for COc1ccc(C(CNC(=O)c2oc3ccc(Br)cc3c2C)N2CCCCC2)cc1 (centres unmarked) ?
-13.3

// lookup hERG current change (%, negative = inhibition) at 10uM | system=human ether-à-go-go-related gene (hERG) potassium channel (human, UniProt Q12809) | key= "O=C(NCCCN1CCc2ccccc2C1)Nc1ccc(Cl)cc1"
-65.5

API: value(readout= hERG current change (%, negative = inhibition) at 10uM, system= human ether-à-go-go-related gene (hERG) potassium channel (human, UniProt Q12809), query= CCS(=O)(=O)Nc1cccc(C2=NN(S(=O)(=O)CC)C(c3ccccc3)C2)c1 (centres unmarked) )
1.69

Form field - read-out: hERG current change (%, negative = inhibition) at 10uM; system: human ether-à-go-go-related gene (hERG) potassium channel (human, UniProt Q12809); submitted item: CCS(=O)(=O)Nc1cccc(C2=NN(S(C)(=O)=O)C(c3ccccc3)C2)c1 (centres unmarked)
-14.6

Lookup: hERG current change (%, negative = inhibition) at 10uM / human ether-à-go-go-related gene (hERG) potassium channel (human, UniProt Q12809) / CCOc1ccc(S(=O)(=O)N2CCCC(C(=O)NCc3ccco3)C2)cc1 (centres unmarked)
-4.45

Item "COc1ccc(NC(=O)NCCCN2CCCC2=O)cc1" with human ether-à-go-go-related gene (hERG) potassium channel (human, UniProt Q12809) - hERG current change (%, negative = inhibition) at 10uM?
4.11

Notebook: pull reported hERG current change (%, negative = inhibition) at 10uM for human ether-à-go-go-related gene (hERG) potassium channel (human, UniProt Q12809), entry "O=C(NCc1ccc(Cl)cc1)c1cc2c(s1)CS(=O)(=O)C2"
-15.1

State its hERG current change (%, negative = inhibition) at 10uM on human ether-à-go-go-related gene (hERG) potassium channel (human, UniProt Q12809): "COc1ccc(NC(=O)NCCCN2CCc3ccccc3C2)cc1"
-69.2

Item CCS(=O)(=O)N1N=C(c2cccc(NS(C)(=O)=O)c2)CC1c1ccccc1 (centres unmarked) with human ether-à-go-go-related gene (hERG) potassium channel (human, UniProt Q12809) - hERG current change (%, negative = inhibition) at 10uM?
-16.9

Can you look up hERG current change (%, negative = inhibition) at 10uM on human ether-à-go-go-related gene (hERG) potassium channel (human, UniProt Q12809) for "Cc1ccc2c(c1)N(C(=O)CCC(=O)NCc1cccc(F)c1)CCO2" ?
-5.21

Recorded hERG current change (%, negative = inhibition) at 10uM for COc1ccc(C(CNC(=O)c2oc3ccc(C)cc3c2C)N2CCCCC2)cc1 (centres unmarked) with human ether-à-go-go-related gene (hERG) potassium channel (human, UniProt Q12809), please?
6.26

Could you share what hERG current change (%, negative = inhibition) at 10uM was measured for CCS(=O)(=O)N1N=C(c2cccc(NS(C)(=O)=O)c2)CC1c1ccc(C)cc1 (centres unmarked) , tested on human ether-à-go-go-related gene (hERG) potassium channel (human, UniProt Q12809)?
-73.9

Give the reported hERG current change (%, negative = inhibition) at 10uM for "CN(CCCNC(=O)CCC(=O)N1CCOc2ccc(Cl)cc21)Cc1ccccc1" (system: human ether-à-go-go-related gene (hERG) potassium channel (human, UniProt Q12809)).
-64.1

Entry "O=S(=O)(c1ccc(Oc2ccc(Cl)cc2)c(S(=O)(=O)N2CCCCC2)c1)N1CCCCC1" , system human ether-à-go-go-related gene (hERG) potassium channel (human, UniProt Q12809): what hERG current change (%, negative = inhibition) at 10uM was measured?;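 also: peak tail current of the secondary pulse compared with the same well before compound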
-10.1

Give hERG current change (%, negative = inhibition) at 10uM (human ether-à-go-go-related gene (hERG) potassium channel (human, UniProt Q12809)) of the following compound: COc1ccc(C(CNC(=O)c2oc3cc(C)c(Cl)cc3c2C)N2CCCCC2)cc1 (centres unmarked)
16.3

Form: Entry = "Cc1ccc2c(c1)N(C(=O)CCC(=O)NCCCN(C)Cc1ccccc1)CCO2" | System = human ether-à-go-go-related gene (hERG) potassium channel (human, UniProt Q12809) | hERG current change (%, negative = inhibition) at 10uM = ____;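 also: peak tail current of the secondary pulse compared with the same well before compound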
-68.3

What is its hERG current change (%, negative = inhibition) at 10uM for human ether-à-go-go-related gene (hERG) potassium channel (human, UniProt Q12809)? Entry: "Cc1cc2c(NC(=O)CCCC(=O)O)cccc2nn1"
13.6

Please state recorded hERG current change (%, negative = inhibition) at 10uM (tested on human ether-à-go-go-related gene (hERG) potassium channel (human, UniProt Q12809)) of "O=C(CCC(=O)N1CCOc2ccccc21)NCCc1ccccc1"
-6

Please tell me: hERG current change (%, negative = inhibition) at 10uM of "O=C(NCCCN1CCc2ccccc2C1)Nc1ccc(Br)cc1" , system human ether-à-go-go-related gene (hERG) potassium channel (human, UniProt Q12809)?;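 also: peak tail current of the secondary pulse compared with the same well before compound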
-71.7

Requested read-out hERG current change (%, negative = inhibition) at 10uM, target or system human ether-à-go-go-related gene (hERG) potassium channel (human, UniProt Q12809), entry "COCCN(Cc1cc2cc3c(cc2nc1Cl)OCO3)C(=O)c1ccc(C)cc1"
-53.2

Record lookup: for human ether-à-go-go-related gene (hERG) potassium channel (human, UniProt Q12809), what hERG current change (%, negative = inhibition) at 10uM belongs to Cc1ccc(C2CC(c3cccc(NS(C)(=O)=O)c3)=NN2S(C)(=O)=O)cc1 (centres unmarked) ?
-69.3

What is its hERG current change (%, negative = inhibition) at 10uM for human ether-à-go-go-related gene (hERG) potassium channel (human, UniProt Q12809)? Entry: "Cc1nc2ccccc2c(=O)n1-c1ccccc1[N+](=O)[O-]"
17.2

Provide value of hERG current change (%, negative = inhibition) at 10uM for this record tested with human ether-à-go-go-related gene (hERG) potassium channel (human, UniProt Q12809): "O=C(CN1CCc2ccccc2C1)Nc1ccc(Br)cc1"
-34.2

Test system human ether-à-go-go-related gene (hERG) potassium channel (human, UniProt Q12809); read-out hERG current change (%, negative = inhibition) at 10uM; what value for COc1ccc(S(=O)(=O)NCC(c2ccco2)N2CCOCC2)cc1 (centres unmarked) ?;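 also: peak tail current of the secondary pulse compared with the same well before compound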
-19.1

Return hERG current change (%, negative = inhibition) at 10uM measured with human ether-à-go-go-related gene (hERG) potassium channel (human, UniProt Q12809) given this compound: "O=C(O)c1c2c(nc3ccc(S(=O)(=O)N4CCC(C(=O)NC5CCCC5)CC4)cc13)CCCCC2"
9.65
